# Species: Rattus norvegicus
# experiment: Open TG-GATES - Regimen: Daily Repeat
# Format: toxicity, organism-based, Sprague-Dawley
# Set-up: regimen Daily Repeat, gender Male, age 6 weeks
# assay.conditions: in vivo, po, 0 mg/kg, […], tissue Plasma, route gavage, dose level Control, time 14 day
quantity.measured: TG (mg/dL)
Unit mg/dL implied. Number only.

Sample records with TG:
CC(=O)[C@@]1(O)CC[C@H]2[C@@H]3C=C(Cl)C4=CC(=O)CC[C@]4(C)[C@H]3CC[C@@]21C [CHLORMADINONE] ... 112.2
CCO [ALCOHOL] ... 120.6
CN(CCOc1ccc(CC2SC(=O)NC2=O)cc1)c1ccccn1.O=C(O)/C=C\C(=O)O (stereo not given) [ROSIGLITAZONE MALEATE] ... 186.4
O=C(O)c1ccccc1Nc1ccccc1 [FENAMIC ACID] ... 108.6

Now for the compound whose TG we want.
According to the records, this compound CCCCC1C(=O)N(c2ccccc2)N(c2ccccc2)C1=O [PHENYLBUTAZONE] displays TG of 177.6
